Reference source: patent US20140348836A1

- SUBJECT_OF_TEST: T1, human CD40 on cells (human, UniProt P25942 21-277)
- T1 construct: whole, on cells; One molecule is used for native or transfected full-length human CD40 on all the cell types tested; also called CD40 on RAMOS cells; CD40 receptor on dendritic cells
- ASSAY_PROCEDURE: flow cytometry (FACS) on RAMOS cells, anti-human Ig F(ab')2-FITC detection, MFI
MEASUREMENT_KIND: EC50 (ng/mL)
The reply should be a number in ng/mL, with the unit left off.

Reported EC50, binder Antibody clone A4 (antibody, human IgG1, lambda, V domains shown, Tested as purified antibody; full chains are assembled here from VH/VL plus these; also called A4 ANTI-CD40 ANTIBODY) VH: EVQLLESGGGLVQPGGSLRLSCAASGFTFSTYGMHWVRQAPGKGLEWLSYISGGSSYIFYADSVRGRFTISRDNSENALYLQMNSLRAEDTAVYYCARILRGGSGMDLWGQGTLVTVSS VL: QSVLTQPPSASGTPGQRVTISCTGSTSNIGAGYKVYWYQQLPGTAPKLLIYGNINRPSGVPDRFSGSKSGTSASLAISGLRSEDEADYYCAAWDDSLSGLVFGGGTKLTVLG : ____
7

Reported EC50, binder Antibody clone H11 (antibody, human IgG1, lambda, V domains shown, also called H11 ANTI-CD40 ANTIBODY) VH: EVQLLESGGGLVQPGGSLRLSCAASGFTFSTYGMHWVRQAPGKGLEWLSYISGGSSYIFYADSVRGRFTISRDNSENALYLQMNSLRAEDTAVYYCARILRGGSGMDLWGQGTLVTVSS VL: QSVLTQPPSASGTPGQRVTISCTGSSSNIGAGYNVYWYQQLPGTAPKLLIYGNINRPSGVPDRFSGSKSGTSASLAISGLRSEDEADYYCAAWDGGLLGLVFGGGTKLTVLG : ____
4.4
